We begin with a simple list: items and their reported Herbicidal effects, barnyard grass.
System: barnyard grass (Echinochloa crus-galli)
Test name: Water application, herbicidal effect on barnyard grass (Table 2)
Format: in vivo
Parameters: key: 0: not damaged; 5: completely killed
Assay conditions: 20 g/a, 25 days, score 0-5
Answer with a number only.

Recorded result, CCCOP(=O)(SC)SCC(=O)N1CCCCC1CC (stereo not drawn) [Compound 83] , Herbicidal effects, barnyard grass: 5

Documented Herbicidal effects, barnyard grass of CCOP(=O)(SCC(=O)N1CCCCC1C)SC(C)CC (stereo not drawn) [Compound 5] : 5

Lab book: Herbicidal effects, barnyard grass of CCCCCSP(=O)(OCCCC)SCC(=O)N1CCCCC1CC (stereo not drawn) [Compound 98] noted as 5

The measured Herbicidal effects, barnyard grass associated with CCOP(=O)(SCC(=O)N1CCCCC1C)SCc1ccc(CC)cc1 (stereo not drawn) [Compound 53] reads 5

Sample CCCOP(=O)(SCCc1ccccc1)SCC(=O)N1CCCCC1CC (stereo not drawn) [Compound 19] ; Herbicidal effects, barnyard grass observed: 5

The value of Herbicidal effects, barnyard grass measured for the compound CCCCOP(=O)(SCC)SCC(=O)N1CCCCC1CC (stereo not drawn) [Compound 92] turned out to be 5

Quick note, Herbicidal effects, barnyard grass for CCOP(=O)(SCC(=O)N1CCCCC1C)SCc1ccc(C(C)(C)C)cc1 (stereo not drawn) [Compound 50] landed at 5

C=C(C)CSP(=O)(OCC)SCC(=O)N1CCCCC1CC (stereo not drawn) [Compound 81] has a reported Herbicidal effects, barnyard grass of 5

The compound listed as CCOP(=O)(SCC(=O)N1CCCCC1C)SCc1ccc(C)cc1 (stereo not drawn) [Compound 52] has a reported Herbicidal effects, barnyard grass of 5

###

Test system: redroot pigweed (Amaranthus retroflexus)
Test name: Pre-emergence application, herbicidal effect on redroot pigweed (Table 1)
Assay type: in vivo
Design: key: 0: not damaged; 5: completely killed
Assay conditions: 20 g./a., 20 days after application, score 0-5
Quantity kind: Herbicidal effect, redroot pigweed
Respond using a number only.

Worked examples, 5 compounds total:
CCCSP(=O)(OCC)SCC(=O)N1CCCCC1C (stereo not shown) | 5
CCCCCSP(=O)(OCC)SCC(=O)N1CCCC(C)C1 (stereo not shown) | 4
CCCOP(=O)(SCCC)SCC(=O)N1CCCCC1C (stereo not shown) | 4
CCCOP(=O)(SCC(=O)N1CCCCC1CC)SCC(C)C (stereo not shown) | 3
CCCCOP(=O)(SCC(=O)N1CCCCC1C)SCc1ccc(C)cc1 (stereo not shown) | 3

# context switch: different compound, same Herbicidal effect, redroot pigweed
Item: CCCSP(=O)(OCC)SCC(=O)N1CCCCC1CC (stereo not shown) | Herbicidal effect, redroot pigweed: 5

###

Reported values of Herbicidal effect, common purslane for individual entries
Tested on: common purslane (Portulaca oleracea)
Test name: Pre-emergence application, herbicidal effect on common purslane (Table 1)
Format: in vivo
Assay conditions: 10 g./a., 20 days after application, score 0-5
Form: value (number only, do not type unit).

See these solved cases before continuing.
CCCOP(=O)(SCCc1ccccc1)SCC(=O)N1CCCCC1CC (stereo not shown) | 4
CCOP(=O)(SCC)SCC(=O)N1CCCCC1CC (stereo not shown) | 5
CCCCSP(=O)(OCCC)SCC(=O)N1CCCCC1CC (stereo not shown) | 5
CCCCOP(=O)(SCCC(C)C)SCC(=O)N1CCCCC1CC (stereo not shown) | 5
CCCCOP(=O)(SCCC)SCC(=O)N1CCCCC1CC (stereo not shown) | 4
CCCOP(=O)(SCC(=O)N1CCCCC1C)SC(C)C (stereo not shown) | 3

Continue with the compound presented below.
For this compound ( CCOP(=O)(SCC(=O)N1CCCCC1C)SCC(C)c1ccccc1 (stereo not shown) ), measured Herbicidal effect, common purslane is 4
